Molecular target: T1, human GIP receptor (human, UniProt P48546 22-466)
T1 sequence (looked up): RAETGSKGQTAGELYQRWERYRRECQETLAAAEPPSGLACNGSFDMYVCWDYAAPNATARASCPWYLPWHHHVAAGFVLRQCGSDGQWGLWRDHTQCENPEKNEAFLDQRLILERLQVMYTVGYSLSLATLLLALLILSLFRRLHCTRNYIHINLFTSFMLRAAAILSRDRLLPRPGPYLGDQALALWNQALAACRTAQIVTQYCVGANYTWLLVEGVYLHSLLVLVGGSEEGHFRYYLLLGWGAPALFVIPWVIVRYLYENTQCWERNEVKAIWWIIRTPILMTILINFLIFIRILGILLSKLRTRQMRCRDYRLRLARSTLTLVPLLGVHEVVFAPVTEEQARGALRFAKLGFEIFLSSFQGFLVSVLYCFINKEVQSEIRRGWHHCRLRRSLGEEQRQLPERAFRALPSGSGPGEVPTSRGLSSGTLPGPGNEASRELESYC
Experiment: cell-based or functional assay
*1 amine or outer side, *2 acyl side, *3 side chain or, on linkers, in order; H or OH if unused. Where no end group is shown, it is not given here. Side-chain parts run from the residue outwards. [ ]: non-standard residue; d: D form. The star is where a group is joined. C20 diacid = O=C(O)CCCCCCCCCCCCCCCCCCC(=O)*; C18 diacid = O=C(O)CCCCCCCCCCCCCCCCC(=O)*; γGlu = O=C(O)[C@H](CCC(=O)[*:2])N[*:1]; εLys = N[C@@H](CCCCN[*:1])C(=O)[*:2]; Aib = CC(C)(N)C(=O)O
measured_attribute: EC50, CreLuc reporter, 0.5% hP (pM)
Respond numerically; units are pM and should not be typed.

Just so you know, measured EC50, CreLuc reporter, 0.5% hP for YXEGTFTSDYSIXLEKQAQXAFVRHLINKLTRQRY (Aib at 2, 13, 20; Lys29 epsilon-amino acylated with C20DA-gGlu-gGlu-gGlu-gGlu-gGlu-gGlu-eLys; C-terminal amide) [Compound 27] came out at 600

In plain terms, Y[Aib]EGTFTSDYSI[Aib]LEKQAQ[Aib]EFVRHLINK([εLys-γGlu-γGlu-γGlu-γGlu-γGlu-γGlu-γGlu-C18 diacid])LTRQRY-NH2 [Compound 32] has a documented EC50, CreLuc reporter, 0.5% hP of 500

Briefly, EC50, CreLuc reporter, 0.5% hP measured for Y[Aib]EGTFTSDYSILLEKQAQ[Aib]AFVRHLINK([γGlu-γGlu-γGlu-γGlu-γGlu-γGlu-C20 diacid])[Aib]TRQRY-NH2 [Compound 57] : 300

Looking up Y[Aib]EGTFTSDYSI[Aib]LEKQAQ[Aib]AFVRHLINK([γDab-γGlu-γGlu-γGlu-γGlu-γGlu-γGlu-C20 diacid])[Aib]TRQRY-NH2 [Compound 46] , I see its EC50, CreLuc reporter, 0.5% hP listed as 800

Sure, the documented EC50, CreLuc reporter, 0.5% hP for Y[Aib]EGTFTSDYSI[Aib]LEKQAQ[Aib]AFVRHLINK([γGlu-γGlu-γGlu-γGlu-γGlu-γGlu-C20 diacid])[Aib]TRQRY-NH2 [Compound 3] is 700

// field: EC50, CreLuc reporter, 0.5% hP; key: YXEGTFTSDYSIXLEKQAQXEFVRHLINKLTRQRY (Aib at 2, 13, 20; Lys29 epsilon-amino acylated with C18DA-gGlu-gGlu-gGlu-gGlu-gGlu-gGlu-eLys; C-terminal amide) [Compound 83] ; value = 400

The binder listed as Y[Aib]EGTFTSDYSI[Aib]LEKQAQ[Aib]EFVRHLINK([γGlu-γGlu-γGlu-γGlu-γGlu-γGlu-C18 diacid])[Aib]TRQRY-NH2 [Compound 56] has a reported EC50, CreLuc reporter, 0.5% hP of 400

EC50, CreLuc reporter, 0.5% hP in this record for YXEGTFTSDYSIXLEKQAQXAFVRHLINKITRQRY (Aib at 2, 13, 20; Lys29 epsilon-amino acylated with C18DA-gGlu-gGlu-gGlu-gGlu-gGlu-gGlu-eLys; C-terminal amide) [Compound 66] : 200

Looking up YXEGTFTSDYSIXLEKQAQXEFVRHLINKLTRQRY (Aib at 2, 13, 20; Lys29 epsilon-amino acylated with C18DA-gGlu-gGlu-gGlu-gGlu-gGlu-AHX; C-terminal amide) [Compound 45] , I found its EC50, CreLuc reporter, 0.5% hP recorded as 300

Cited source: patent US20250382344A1
